assay: APR_HepG2_CellCycleArrest_72hr: Apredica 72-hour HepG2 Assay for Cell Cycle Arrest (AID 2282914); settings: high-content imaging, actives raise or lower the signal
Calls of active or inactive are those of the source. Rule for the calls: active = hit-call score of the fitted dose curve at least 0.9, where 1 is the maximum; inactive = score below 0.9.
Response enum: true (active), false (inactive)

**Q:** Name the outcome recorded for C[C@]12C=CC3=C4CCC(=O)C=C4CC[C@H]3[C@@H]1CC[C@@H]2O in the assay.
**A:** false

**Q:** Short answer needed: outcome of this test for COC(=O)Nc1nc2ccccc2[nH]1 ?
**A:** true

**Q:** Field: outcome | Entry: CCCCCCCCn1sccc1=O
**A:** false

**Q:** Short answer needed: outcome of this test for O=[N+]([O-])C(Br)(CO)CO ?
**A:** false

**Q:** // outcome(item) with item = N#CC(Br)(Br)C(N)=O
**A:** false

**Q:** Recorded test outcome, item Cc1ccc(N)cc1
**A:** false

**Q:** Hi, do you know how CCCCOC(=O)c1ccccc1C(=O)OCc1ccccc1 came out in this test?
**A:** true

**Q:** Answer briefly: the call reported for CCCCC(CC)COC(=O)c1ccc(C(=O)OCC(CC)CCCC)c(C(=O)OCC(CC)CCCC)c1 (configuration not stated) in this assay.
**A:** false

**Q:** So what was the verdict on CCCCCOC(=O)c1ccccc1C(=O)OCCCCC in this test?
**A:** true

**Q:** Outcome? CN(C)C(=O)Nc1ccc(Cl)cc1
**A:** false

**Q:** Which outcome did this test record for the molecule CCOC(=O)[C@]1(c2ccccc2)Oc2ccccc2[C@@H]1N ?
**A:** false

**Q:** Please share the test call associated with Cc1cc(N=Nc2ccccc2C)ccc1N .
**A:** true

**Q:** Outcome? O=C(Nc1ccccc1)c1ccccc1I
**A:** false

**Q:** Field: outcome | Entry: Nc1ccc(Cl)cc1N
**A:** true

**Q:** Field: outcome | Entry: CC(O)CCO (configuration not stated)
**A:** false

**Q:** Field: outcome | Entry: Cc1cccc(N)c1N
**A:** true

**Q:** Dear all, I need the recorded test outcome for O=[N+]([O-])c1ccc(Oc2ccc(Cl)cc2Cl)cc1 , thank you.
**A:** false

**Q:** State the result this test recorded for CO[C@@H]1[C@H](OC(=O)NC(=O)CCl)CC[C@]2(CO2)[C@H]1[C@@]1(C)O[C@@H]1CC=C(C)C .
**A:** false

**Q:** Look up the recorded call for O=C(Oc1ccc(Br)cc1)N1CCN2CCC1CC2 in this test.
**A:** true

**Q:** Each molecule tested received a call. Report the one for CCOc1cccc(C2(N3CCN(c4ccccc4)CC3)CCC(C)CC2)c1 (configuration not stated) .
**A:** false

**Q:** Which outcome did this test record for the molecule CC(C)(C)OOC(C)(C)CCC(C)(C)OOC(C)(C)C ?
**A:** true

**Q:** Hi, do you know how c1ccc2c(c1)oc1ccccc12 came out in this test?
**A:** false

**Q:** Look up the recorded call for Cc1ccc(N=C=O)cc1N=C=O in this test.
**A:** false

**Q:** Recorded test call requested for OCCOCCO
**A:** false

**Q:** Name the outcome recorded for c1ccc(N=Nc2ccccc2)cc1 in the assay.
**A:** false

**Q:** What classification did OCCCBr end up with in this test?
**A:** false

**Q:** Call for entry ClC1=C(Cl)[C@]2(Cl)[C@H]3[C@H]([C@@H]4C=C[C@H]3C4)[C@@]1(Cl)C2(Cl)Cl :
**A:** true

meta.source: PubChem BioAssay (EPA / NIEHS)
